Data provenance is patent US6410556B1.

# system name: truncated form of PTP1B (first 321 amino acids) (Homo sapiens)
# Construct: a truncated form of PTPI B (corresponding to the first 321 amino acids)
# Sequence (P18031 1-321 limits assumed): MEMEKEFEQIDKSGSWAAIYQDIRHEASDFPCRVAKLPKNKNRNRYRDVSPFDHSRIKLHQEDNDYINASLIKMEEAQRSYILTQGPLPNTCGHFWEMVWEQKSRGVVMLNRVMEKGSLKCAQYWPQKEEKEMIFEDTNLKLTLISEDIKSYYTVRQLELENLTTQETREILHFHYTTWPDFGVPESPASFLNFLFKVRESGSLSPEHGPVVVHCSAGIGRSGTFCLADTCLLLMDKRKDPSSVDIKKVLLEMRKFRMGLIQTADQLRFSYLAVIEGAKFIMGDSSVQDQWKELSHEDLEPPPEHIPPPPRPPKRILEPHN
# assay: Inhibition of PTP1B, p-nitrophenyl phosphate substrate, enzyme kinetic analysis
# condition notes: truncated PTP1B expressed in E. coli; substrate p-nitrophenyl phosphate 0.16 to 10 mM; 50 mM HEPES pH 7.0; 25° C., 60 minutes
pKi: −log10 of the molar value.
readout type: pKi

Some entries whose results are on file:
O=C(O)C(=O)Nc1sc2c(c1C(=O)O)CC(CNC1=NS(=O)(=O)c3ccccc31)NC2 (stereo not shown) [Example 10]
6.57
O=C(O)C(=O)Nc1sc2c(c1C(=O)O)CC(CN1Cc3c(O)cccc3C1=O)NC2 (stereo not shown) [Example 8]
6.60

[P] COc1cccc2c1C(=O)N(CC1Cc3c(sc(NC(=O)C(=O)O)c3C(=O)O)CN1)C2 (stereo not shown) [Example 12]
[Q] O=C(O)C(=O)Nc1sc2c(c1C(=O)O)CCNC2CNC1=NS(=O)(=O)c2ccccc21 (stereo not shown) [Example 11]
Lab note: check whether P or Q shows the higher recorded pKi. Kindly state the label of the option you pick.
Q
